- Tested on: BT549 cell line
- test_details: MTS cell viability assay in BT549 cell line
- Format: cell-based
- run_conditions: Homo sapiens, BT-549; BT549, 72 hours
attribute_measured: pIC50
// pIC50 here means minus log10 of the molar concentration (mol/L)

Given the compound Cc1nn(CCC2CCN(C)CC2)c2cc(NC(=O)c3ccc4c(c3Cl)C=CC(C)(C)O4)ccc12 [compound 38] , what is its reported pIC50?
5.32

====

- System: mouse breast cancer cell line 4T1
- test_details: MTS cell viability assay in 4T1 cell line
- Format: cell-based
- run_conditions: 4T1, 72 hours
attribute_measured: IC50 (nM)
Dear colleague, please return just the value in nM, with no unit written.

Look at this compound and give its reported IC50. Cc1nn(CCC2CCN(C)CC2)c2cc(NC(=O)c3ccc4c(c3Cl)C=CC(C)(C)O4)ccc12 [compound 38]
1210

Where do these numbers come from? They come from patent US20260167629A1.
